- tgt: human α7 nAChR (Homo sapiens)
- Construct: expressed in transfected cells
- Sequence (P36544 23-502): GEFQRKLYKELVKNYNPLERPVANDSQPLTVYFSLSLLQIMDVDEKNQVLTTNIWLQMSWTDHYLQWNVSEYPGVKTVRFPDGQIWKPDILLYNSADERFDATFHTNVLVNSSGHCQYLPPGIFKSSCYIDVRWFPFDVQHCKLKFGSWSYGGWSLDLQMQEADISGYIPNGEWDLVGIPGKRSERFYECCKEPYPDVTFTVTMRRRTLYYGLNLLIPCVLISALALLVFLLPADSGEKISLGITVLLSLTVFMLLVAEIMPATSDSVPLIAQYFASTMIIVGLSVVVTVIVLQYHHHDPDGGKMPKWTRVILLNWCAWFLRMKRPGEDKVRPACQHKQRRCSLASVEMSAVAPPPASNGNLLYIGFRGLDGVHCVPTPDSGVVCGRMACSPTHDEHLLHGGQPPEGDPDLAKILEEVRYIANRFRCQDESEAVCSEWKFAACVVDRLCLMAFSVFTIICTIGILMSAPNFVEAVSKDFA
- assay procedure: Evaluation of PAM activity with human α7 nACh receptor stably expressing cells (aequorin luminescence, FDSS7000)
- Assay type: cell-based
- run parameters: 1 μM test compound (values marked *, footnote of Table 25); ACh at EC20; ratio of RLU (Max-Min) to control wells; read-out: α7PAM (%) @1 μM
Records here are stratified by activity at 1 µM; strata: low bracket: < 200%; middle bracket: ≥ 200% and < 400%; high bracket: ≥ 400%

INSERT INTO measurements (compound, label_class) VALUES
  ('CC(C)(F)C(=O)N[C@H]1CC[C@@H](n2cnc(-c3cc(F)c(F)cc3F)c2)CC1 [Example 313]', 'middle bracket'),
  ('N#Cc1c(-c2cc(F)ccc2F)ncn1[C@@H]1C[C@H]2CC[C@@H](C1)N2C(=O)C1CCC(F)(F)CC1 [Example 464]', 'low bracket'),
  ('CC(C)(F)C(=O)N[C@H]1CC[C@@H](n2cnc(-c3cc(OC(F)(F)F)ccc3F)c2)CC1 [Example 304]', 'high bracket'),
  ('O=C(C1CCC(F)(F)CC1)N1[C@@H]2CC[C@H]1C[C@@H](n1cnc(-c3cccc(F)c3F)c1)C2 [Example 429]', 'low bracket'),
  ('COc1cc(-c2ncn([C@H]3CC[C@@H](NC(=O)C4CCC4)CC3)c2Cl)ccc1F [Example 191]', 'middle bracket'),
  ('CC(C)(C)C(=O)N[C@H]1CC[C@@H](n2cnc(-c3ccc(Cl)cc3)c2C#N)CC1 [Example 334]', 'middle bracket'),
  ('O=C(NC1CCCCC1)N1[C@@H]2CC[C@H]1C[C@@H](n1cnc(-c3cccc(F)c3F)c1)C2 [Example 387]', 'middle bracket'),
  ('N#Cc1c(-c2cc(F)ccc2F)ncn1[C@H]1C[C@H]2CC[C@@H](C1)N2C(=O)NC1CCC(F)(F)CC1 [Example 403]', 'high bracket'),
  ('COc1cc(-c2cn([C@H]3CC[C@@H](NC(=O)C(C)(C)F)CC3)cn2)ccc1Cl [Example 309]', 'low bracket'),
  ('COC1CCC(NC(=O)N2CCC(n3cnc(-c4ccc(F)cc4)c3)CC2)CC1 (stereo not drawn) [Example 33]', 'low bracket'),
  ('CC(C)(C)C(=O)N[C@H]1CC[C@@H](n2cnc(-c3ccc(C(F)(F)F)cc3)c2C#N)CC1 [Example 199]', 'middle bracket'),
  ('CC(C)(F)C(=O)N[C@H]1CC[C@@H](n2cnc(-c3ccc(F)c(OC(F)(F)F)c3)c2)CC1 [Example 295]', 'high bracket'),
  ('O=C(NC1CCOCC1)[C@H]1CC[C@@H](n2cnc(-c3ccccc3F)c2)CC1 [Example 356]', 'low bracket'),
  ('O=C(NC1CCOCC1)[C@H]1CC[C@@H](n2cnc(-c3cccc(F)c3F)c2)CC1 [Example 358]', 'low bracket'),
  ('O=C(N[C@H]1CC[C@@H](n2cnc(-c3cccc(F)c3)c2Cl)CC1)C1CCC1 [Example 176]', 'middle bracket'),
  ('O=C(N[C@H]1CC[C@@H](n2cnc(-c3ccc(F)cc3)c2Cl)CC1)c1ccc(F)cc1 [Example 184]', 'middle bracket'),
  ('CC(C)(F)C(=O)N[C@H]1CC[C@@H](n2cnc(-c3cc(OC(F)(F)F)ccc3F)c2Cl)CC1 [Example 328]', 'high bracket'),
  ('O=C(C1CCC(F)(F)CC1)N1[C@@H]2CC[C@H]1C[C@H](n1cnc(-c3cc(F)ccc3F)c1)C2 [Example 451]', 'low bracket'),
  ('COc1cc(-c2ncn([C@H]3CC[C@@H](NC(=O)C4CCC4)CC3)c2Cl)c(Cl)cc1F [Example 192]', 'middle bracket'),
  ('N#Cc1c(-c2ccc(F)cc2F)ncn1[C@H]1C[C@H]2CC[C@@H](C1)N2C(=O)C1CCC(F)(F)CC1 [Example 443]', 'middle bracket'),
  ('CC(C)(F)C(=O)N[C@H]1CC[C@@H](n2cnc(-c3cc(F)c(F)cc3Cl)c2)CC1 [Example 317]', 'middle bracket'),
  ('CC(C)(F)C(=O)N[C@H]1CC[C@@H](n2cnc(-c3ccc(F)c(OC(F)(F)F)c3)c2C#N)CC1 [Example 350]', 'high bracket'),
  ('O=C(NC1CCC(F)(F)CC1)N1[C@@H]2CC[C@H]1C[C@@H](n1cnc(-c3ccc(F)cc3F)c1)C2 [Example 384]', 'high bracket'),
  ('O=C(N[C@H]1CC[C@@H](n2cnc(-c3ccc(F)cc3)c2Cl)CC1)C1CCCC1 [Example 182]', 'high bracket'),
  ('O=C(NC1CCC1)N1CCC(n2cnc(-c3ccccc3)c2Cl)CC1 [Example 79]', 'low bracket'),
  ('CC(C)(C)C(=O)N[C@H]1CC[C@@H](n2cnc(-c3ccc(C(F)(F)F)cc3)c2)CC1 [Example 161]', 'middle bracket'),
  ('CC(C)(F)C(=O)N[C@H]1CC[C@@H](n2cnc(-c3cc(F)cc(F)c3)c2C#N)CC1 [Example 343]', 'middle bracket'),
  ('O=C(NC1CCCCC1)N1[C@@H]2CC[C@H]1C[C@@H](n1cnc(-c3ccc(F)cc3F)c1)C2 [Example 385]', 'middle bracket');
